Provide the recorded MIC for the entries that follow.
tested on: Acinetobacter baumannii; assay: Antimicrobial activity against SAM/CTX/AK/CRO/CN drugs-resistant Acinetobacter baumannii 0004 assessed as inhibition of bacterial growth incubated for approximately 18 hrs by resazurin dye based broth microdilution assay; format: functional
All answers are understood in µM, so give the number only.

Kindly note: Acinetobacter baumannii, H-KWFKKLPKILHKLAKKW-OH , MIC value reported: 2

Kindly note: Acinetobacter baumannii, H-KWARRLVYLIANYWKKR-OH , MIC value reported: 2

Kindly note: Acinetobacter baumannii, H-LWKILKKIWRVLKNWN-OH , MIC value reported: 4

Kindly note: Acinetobacter baumannii, H-KRIWRKILWWIKWR-OH , MIC value reported: 8

Kindly note: Acinetobacter baumannii, H-KWKIFKRIVGRILRYLR-OH , MIC value reported: 4

Kindly note: Acinetobacter baumannii, H-RLWKIWWKIWRVLI-OH , MIC value reported: 16

Kindly note: Acinetobacter baumannii, H-RIRFKWRWWMRIRLKWY-OH , MIC value reported: 16

Kindly note: Acinetobacter baumannii, H-RQIKIWFQNRRWGLQLK-OH , MIC value reported: 16

Kindly note: Acinetobacter baumannii, H-KLKRWLVWLIRKLW-OH , MIC value reported: 16

Kindly note: Acinetobacter baumannii, H-RLWKIWLVWIRWRNQK-OH , MIC value reported: 16

Kindly note: Acinetobacter baumannii, H-KIRWLLYWIRRKRL-OH , MIC value reported: 16

Kindly note: Acinetobacter baumannii, H-WFKKLLKLALKWAKYA-OH , MIC value reported: 4

Kindly note: Acinetobacter baumannii, H-FWKKVFKWIWRVLHNFG-OH , MIC value reported: 8

Kindly note: Acinetobacter baumannii, H-IWLAVWKGLLKRWLH-OH , MIC value reported: 2

Kindly note: Acinetobacter baumannii, H-AWKAKLKRLAIAWKR-OH , MIC value reported: 4

Kindly note: Acinetobacter baumannii, H-RWRKIWFLWRYKIW-OH , MIC value reported: 128

Kindly note: Acinetobacter baumannii, H-GLWKRWKKVLWGAKNKI-OH , MIC value reported: 2

Kindly note: Acinetobacter baumannii, H-RLIKIWWIYRRKWR-OH , MIC value reported: 128

Kindly note: Acinetobacter baumannii, H-VLAANRLVRRLAQKIAR-OH , MIC value reported: 32

Kindly note: Acinetobacter baumannii, H-GWAKRLVQRLADWLRKF-OH , MIC value reported: 2

Kindly note: Acinetobacter baumannii, H-RIWVLIYRWYRKWY-OH , MIC value reported: 32

Kindly note: Acinetobacter baumannii, H-RRRLILWILWRRLR-OH , MIC value reported: 4
